System: SK-MEL-5 melanoma
Experiment: NCI-60 one-dose screen, 48 h
Conditions: 10 µM unless noted
Compounds without any hit were thinned out: in the full panel of roughly 83,000, 20% have a hit. The source made the active and inactive calls. How the source made its calls: active means growth percent below 10; inactive means the rest.
Labels: active, inactive

Molecule | Measured On | Label
ClCCN(CCCl)c1ccc(/C=C\c2ccnc3ccccc23)cc1 | SK-MEL-5 melanoma | inactive
Nc1ncnc2c1c(C(=O)NO)cn2C1OC(CO)C(O)C1O (stereo not given) | SK-MEL-5 melanoma | active
CC(=O)C1CCC2C3CC=C4CC(OC(=O)Cc5ccc(N(CCCl)CCCl)cc5)CCC4(C)C3CCC12C (stereo not given) | SK-MEL-5 melanoma | inactive
CN1CC2CCC(C1)C2=O | SK-MEL-5 melanoma | inactive
NS(=O)(=O)c1nc[nH]c1[N+](=O)[O-] | SK-MEL-5 melanoma | inactive
Cc1cc(NC(=O)NCCOc2ccc(N3C(N)=NC(N)=NC3(C)C)cc2Cl)ccc1S(=O)(=O)F | SK-MEL-5 melanoma | inactive
O=S(=O)(O)c1ccc(-c2ccc([As](=O)(O)O)cc2)cc1 | SK-MEL-5 melanoma | inactive
CC(=O)O[C@@H]1C2=C(C)C3(CC3)[C@@](C)(O)C(=O)C2=C[C@@]1(C)CO | SK-MEL-5 melanoma | active
C[C@]12C[C@H](O)[C@H]3[C@@H](CCC4=CC(=O)CC[C@@]43C)[C@@H]1CC[C@@H]2O | SK-MEL-5 melanoma | inactive
CO[C@@H]([CH2][Hg][S]C#N)[C@@H]([CH2][Hg][S]C#N)OC | SK-MEL-5 melanoma | inactive

###

Tested on: SNB-75 CNS
Test: NCI-60 one-dose screen, 48 h (100 = growth as untreated, 0 = no growth, -100 = all killed)
Settings: 10 µM unless noted
Method: Growth inhibition of the SNB-75 human tumor cell line is measured as a screen for anti-cancer activity. Cells are grown in 96 well plates and exposed to the test compound for 48 hours. Compounds are tested at a single concentration, which is 10^-5 M for most compounds. The reported endpoint is percent growth (GI% or GIPRCNT), where numbers from 0 - 100% represent growth inhibition, and numbers from -100% - 0 represent cell death. For example, a value of 40 represents 60% growth inhibition. […]
About 83,000 compounds went through this panel and 20% of them were active in at least one assay; those are over-represented in the sample as a whole.
Entries annotated with measured growth
Recorded Metric: growth (%)

Compound | Reported
CC(=O)O[C@H]1CCC2(C)C(=CCC3C2CCC2(C)/C(=N/OC(=O)c4ccc(N(CCCl)CCCl)cc4)CCC32)C1 (stereo not given in full) | 22.5
CNc1ccc(C(=O)CC(O)CCC(C)C2OC(=O)CC(O)CC(=O)CC(O)CC(O)CC(O)CC(O)CC3(O)CC(O)C(C(=O)OC)C(CC(O[C@@H]4O[C@H](C)[C@@H](O)[C@H](N)[C@@H]4O)/C=C/C=C/C=C/C=C/C=C/C=C/C=C/C2C)O3)cc1 (stereo not given in full) | 42.6
CCC(CO)NC1CCCCC1 (stereo not given) | 81.6
COc1c(O)c2c3c(c1OC)-c1ccccc1CC3N(C)CC2 (stereo not given) | 82.4
CC(=O)O[C@H]1CCC2C3CCC4=C/C(=N/O)CCC4(C)C3CCC21C (stereo not given in full) | 96.4
CCOCC1(CCc2ccccc2)C(=O)NC(=S)NC1=O | 100
O=C1C=CC(=O)C2C1C1(Cl)C(Cl)=C(Cl)C2(Cl)C1(Cl)Cl (stereo not given) | 40.3
CCCCN(CCCC)CC(O)c1ccccc1 (stereo not given) | 91.5
CC1(C)CC2(CC(C)(C)c3cc(O)c(O)cc32)c2cc(O)c(O)cc21 | 81.2
Cc1ccc(C(=O)C2CN(C)CCC2(O)c2ccc(C)cc2)cc1 (stereo not given) | 96

Source: PubChem BioAssay (NCI)
